Measured values drawn from paper PMC11719397 for this set.

pKd for assorted molecules
Target: K-RAS4B^wt (Homo sapiens, UniProt P01116)
Construct: a fusion protein of LgBiT and full-length RAS; a fusion protein of SmBiT(q) and full-length RAS in cells
Sequence (P01116 1-188 isoform P01116-2): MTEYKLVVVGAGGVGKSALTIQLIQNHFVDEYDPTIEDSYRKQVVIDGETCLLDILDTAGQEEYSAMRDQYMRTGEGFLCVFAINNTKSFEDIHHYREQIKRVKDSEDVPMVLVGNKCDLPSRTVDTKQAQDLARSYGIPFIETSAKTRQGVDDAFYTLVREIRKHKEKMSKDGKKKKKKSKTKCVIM
Sequence (P01116 1-188 isoform P01116-2): as above
Assay: NanoBRET target engagement assay, K-RAS4B^wt (displacement of BI2852 tracer from SI/SII site)
Settings: live cells; displacement of BI2852 from the K-Ras4B SI/II binding-site; read-out: K-RAS4B^wt NanoBRET TE KD
pKd: −log10 of the molar value.

molecule | assay target | pKd
C=C(C)[C@@H]1CC[C@]2(C(=O)O)CC[C@]3(C)[C@H](CC[C@@H]4[C@@]5(C)CC[C@H](OC(=O)c6sccc6C(=O)O)C(C)(C)[C@@H]5CC[C@]43C)[C@@H]12 | K-RAS4B^wt (Homo sapiens, UniProt P01116) | 4.66
COc1cc(C(=O)O)c(C(=O)OC2CCC3(C)C(CCC4(C)C3CC=C3C5CC(C)(C)CCC5(C(=O)O)CCC34C)C2(C)C)cc1OC (stereo not drawn) | K-RAS4B^wt (Homo sapiens, UniProt P01116) | 4.41
C=C(C)[C@@H]1CC[C@]2(COC(=O)CCC(=O)O)CC[C@]3(C)[C@H](CC[C@@H]4[C@@]5(C)CC[C@H](OC(=O)CCC(=O)O)C(C)(C)[C@@H]5CC[C@]43C)[C@@H]12 | K-RAS4B^wt (Homo sapiens, UniProt P01116) | 4.39
